# kon annotations
Molecular target: T1, purified human activated C1s protein, two-chain form (Homo sapiens, UniProt P09871 16-688)
T1 construct: Purified protein bought from EMD Millipore; Biotin-labeled in the clone screen; also called active C1s; native C1s protein
T1 sequence: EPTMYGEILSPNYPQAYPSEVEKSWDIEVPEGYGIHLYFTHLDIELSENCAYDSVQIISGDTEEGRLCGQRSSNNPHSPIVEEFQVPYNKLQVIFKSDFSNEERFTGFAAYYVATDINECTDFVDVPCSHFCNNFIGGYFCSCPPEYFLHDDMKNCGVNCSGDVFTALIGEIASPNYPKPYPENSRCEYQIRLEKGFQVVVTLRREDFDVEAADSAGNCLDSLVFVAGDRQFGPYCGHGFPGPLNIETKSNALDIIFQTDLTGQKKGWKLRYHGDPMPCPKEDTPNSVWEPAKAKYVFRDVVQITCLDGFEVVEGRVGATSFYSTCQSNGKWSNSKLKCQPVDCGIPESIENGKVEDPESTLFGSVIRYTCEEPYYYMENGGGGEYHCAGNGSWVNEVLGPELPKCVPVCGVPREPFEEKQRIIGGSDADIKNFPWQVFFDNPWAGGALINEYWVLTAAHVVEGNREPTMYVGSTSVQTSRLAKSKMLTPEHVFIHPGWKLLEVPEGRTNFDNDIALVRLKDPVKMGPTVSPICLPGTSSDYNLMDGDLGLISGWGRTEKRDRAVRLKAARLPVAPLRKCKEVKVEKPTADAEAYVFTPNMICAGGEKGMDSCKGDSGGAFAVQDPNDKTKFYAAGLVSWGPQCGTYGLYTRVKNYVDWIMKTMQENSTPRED
Experiment: bio-layer interferometry (BLI), kinetic analysis
Field format: number, assumed M⁻¹ s⁻¹, no unit text.

Check out these entries, answers already filled in.
Binder: antibody IPN-M33 (antibody, V domains shown, Mouse monoclonal antibody (NZBW hybridoma)) VH: QVKLQQSGPELVKPGTSVRISCKTSGYSFTGYYMHWVKQSPEKSLEWIGEINPSIGDITYNQRFKAKATLTVDKSSSTAYMQLKSLTSEDSAVYYCASDYYGGGFAWFAYWGQGTLVTVSA VL: DIVMTQSPAIMSASSGEKVTMTCSASSSINYMHWYQQKPGTSPKRWIYDTSKLASGVPARFSGSGSGTSYSLTISSMEAEDTATYYCHQRSDSLTFGSGTKLEIK
Value units: M⁻¹ s⁻¹
kon: 467000
//
Binder: antibody IPN-M8 (antibody, V domains shown, Mouse monoclonal antibody (NZBW hybridoma); Same VL and VH as IPN-M2) VH: EVKLQQSGAELVRPGASVKLSCTASGFNIKDDYIHWVKQRPEQGLEWIGRIDPADGHTKYAPKFQVKATITADTSSNTAYLQLSSLTSEDTAVYYCARYGYGREVFDYWGQGTTLTVSS VL: DIVLTQSPASLAVSLGQRATISCKASQSVDYDGDSYMNWYQQKTGQPPKILIYDASNLESGIPARFSGSGSGTDFTLNIHPVEEEDAAIYYCQQSNEDPWTFGGGTKLEIK
Value units: M⁻¹ s⁻¹
kon: 1.12e+06

Turning now to a further binder:
stdin: Returns the measured kon for the input binder. Input: antibody IPN-M15 (antibody, V domains shown, Mouse monoclonal antibody (NZBW hybridoma)) VH: EVKLEQSGAELVRPGASVKLSCTASGFNIKDDYIHWVKQRPEQGLEWIGRIDPADDHTKYAPKFQDKATMTADTSSNTACLQLNSLTSEDTAVYYCAIYGSGWAWFPYWGQGTLVSVSA VL: FALMTQSTDYLAVSLGQRATISCKASQSVDYDGDSYMNWYQQKPGQPPKLLIYAASNLESGIPTRFSGSGFGTDFTLNIHPVEEEDAATYYCQQSNEDPWTFGGGPKLEIK
stdout: 858000
